- TARGET_UNDER_TEST: T1, human PSMA (Prostate Specific Membrane Antigen, Glutamate Carboxypeptidase II) on cells (human, UniProt Q04609 1-750)
- T1 construct: whole, on cells; the cell line is named under assay; also called cell surface expressed PSMA; FOLH1
- PROTOCOL_NOTES: flow cytometry on LNCaP cells
Listed below: fold over the background MFI signal values for each entry.
Reply numerically in fold over background, unit not repeated.

BINDER: anti-PSMA heavy chain antibody clone ID 325920 (antibody, V domains shown, heavy chain-only antibody (UniAb), no light chain; also called Antibody 2) VH: QLQLQESGPGLVKPSETLSLTCTVSGGSISSSSYYWGWIRQPPGKGLEWIGSIDYSGYTYYNPSLQSRVTISVDTSKNQFSLKLSSVTAADTAVYNCARHKAATADFDYRGQGTLVTVSS
fold over the background MFI signal [fold over background]: 282
--
BINDER: anti-PSMA heavy chain antibody clone ID 325940 (antibody, V domains shown, heavy chain-only antibody (UniAb), no light chain) VH: QVQLVESGGGVVQPGRSLRLSCAASGFIFRSYGMHWVRQAPGKGPEWVAVIWYDGSNKYYADSVKGRFTISRDNSKNTLYLQMNSLRAEDTAVYYCAREPRIGYYYESSGYYSLDYRGQGTLVTVSS
fold over the background MFI signal [fold over background]: 169
--
BINDER: anti-PSMA heavy chain antibody clone ID 345463 (antibody, V domains shown, heavy chain-only antibody (UniAb), no light chain) VH: QVQLVESGGGVVQPGRSLRLSCAASGFIFRSYGMHWVRQAPGKGPEWVAVIWYDGSNKYYADSVKGRFTISRDNSKNTLYLQMNSLRAEDTAVYYCAREPRIGYYYESSGYYSLDYRGQGTLVTVSS
fold over the background MFI signal [fold over background]: 68

Fill in reported fold over the background MFI signal for this entry: anti-PSMA heavy chain antibody clone ID 345490 (antibody, V domains shown, heavy chain-only antibody (UniAb), no light chain) VH: QVQLVESGGGLVKPGGSLRLSCAASGFSFSSYGMHWVRQAPGKGLEGVAVIWYDGSNRYYADSVKGRFTISRDNSKNTLYLQMNSLRAEDTAVYYCAREPRIGYYYESSGYYSLDYRGQGTLVTVSS
80
